Tgt: ROCK2 (Homo sapiens (Human))
Experiment: ROCK assay (peptide substrate phosphorylation, LABCHIP 3000 Reader)
Format: biochemical
Recorded conditions: 5 μM ATP, 1.5 μM peptide substrate
pIC50: −log10 of the molar value.
Endpoint: pIC50

Below, 4 compounds whose answers are already recorded.
>  <Compound>
COc1cc(C(=O)N2CC(O)C[C@@H]2c2cccc(C(=O)NC(C)C)c2)ccc1-c1cn[nH]c1 (some centres unmarked) [Example 52]

>  <Tgt>
ROCK2 (Homo sapiens (Human))

>  <Experimental result>
8.18

$$$$
>  <Compound>
COc1cc(C(=O)N2CC(O)C[C@@H]2c2cccc(C(=O)N3CC(OC)C3)c2)ccc1-c1cn[nH]c1 (some centres unmarked) [Example 62]

>  <Tgt>
ROCK2 (Homo sapiens (Human))

>  <Experimental result>
6.50

$$$$
>  <Compound>
COc1cc(C(=O)N2CC(F)C[C@@H]2c2cccc(C(=O)NC3CC3)c2)ccc1-c1cn[nH]c1 (some centres unmarked) [Example 78]

>  <Tgt>
ROCK2 (Homo sapiens (Human))

>  <Experimental result>
8.33

$$$$
>  <Compound>
CCNC(=O)c1cccc(C2CCCN2C(=O)c2ccc(-c3cn[nH]c3)c(OC)c2)c1 (centres unmarked) [Example 35]

>  <Tgt>
ROCK2 (Homo sapiens (Human))

>  <Experimental result>
8.31

$$$$

A: COCCNC(=O)c1cccc([C@H]2CC(O)CN2C(=O)c2ccc(-c3cn[nH]c3)c(OC)c2)c1 (some centres unmarked) [Example 50]
B: COc1cc(C(=O)N2CC(O)C[C@@H]2c2ccc3c(I)n[nH]c3c2)ccc1-c1cn[nH]c1 (some centres unmarked) [Example 109]
C: CCN1CCC[C@H]1CNC(=O)c1cccc([C@H]2CC(O)CN2C(=O)c2ccc(-c3cn[nH]c3)c(OC)c2)c1 (some centres unmarked) [Example 49]
D: COc1cc(C(=O)N2CCC(c3ccccc3)C2)ccc1-c1cn[nH]c1 (centres unmarked) [Example 2]
Query: Order these by pIC50, descending, and give the full ranking. Order the labels as requested and list them.
Response: A, C, D, B

###

Tgt: ROCK2 (Homo sapiens (Human), UniProt O75116)
Sequence (O75116 whole entry, species assumed): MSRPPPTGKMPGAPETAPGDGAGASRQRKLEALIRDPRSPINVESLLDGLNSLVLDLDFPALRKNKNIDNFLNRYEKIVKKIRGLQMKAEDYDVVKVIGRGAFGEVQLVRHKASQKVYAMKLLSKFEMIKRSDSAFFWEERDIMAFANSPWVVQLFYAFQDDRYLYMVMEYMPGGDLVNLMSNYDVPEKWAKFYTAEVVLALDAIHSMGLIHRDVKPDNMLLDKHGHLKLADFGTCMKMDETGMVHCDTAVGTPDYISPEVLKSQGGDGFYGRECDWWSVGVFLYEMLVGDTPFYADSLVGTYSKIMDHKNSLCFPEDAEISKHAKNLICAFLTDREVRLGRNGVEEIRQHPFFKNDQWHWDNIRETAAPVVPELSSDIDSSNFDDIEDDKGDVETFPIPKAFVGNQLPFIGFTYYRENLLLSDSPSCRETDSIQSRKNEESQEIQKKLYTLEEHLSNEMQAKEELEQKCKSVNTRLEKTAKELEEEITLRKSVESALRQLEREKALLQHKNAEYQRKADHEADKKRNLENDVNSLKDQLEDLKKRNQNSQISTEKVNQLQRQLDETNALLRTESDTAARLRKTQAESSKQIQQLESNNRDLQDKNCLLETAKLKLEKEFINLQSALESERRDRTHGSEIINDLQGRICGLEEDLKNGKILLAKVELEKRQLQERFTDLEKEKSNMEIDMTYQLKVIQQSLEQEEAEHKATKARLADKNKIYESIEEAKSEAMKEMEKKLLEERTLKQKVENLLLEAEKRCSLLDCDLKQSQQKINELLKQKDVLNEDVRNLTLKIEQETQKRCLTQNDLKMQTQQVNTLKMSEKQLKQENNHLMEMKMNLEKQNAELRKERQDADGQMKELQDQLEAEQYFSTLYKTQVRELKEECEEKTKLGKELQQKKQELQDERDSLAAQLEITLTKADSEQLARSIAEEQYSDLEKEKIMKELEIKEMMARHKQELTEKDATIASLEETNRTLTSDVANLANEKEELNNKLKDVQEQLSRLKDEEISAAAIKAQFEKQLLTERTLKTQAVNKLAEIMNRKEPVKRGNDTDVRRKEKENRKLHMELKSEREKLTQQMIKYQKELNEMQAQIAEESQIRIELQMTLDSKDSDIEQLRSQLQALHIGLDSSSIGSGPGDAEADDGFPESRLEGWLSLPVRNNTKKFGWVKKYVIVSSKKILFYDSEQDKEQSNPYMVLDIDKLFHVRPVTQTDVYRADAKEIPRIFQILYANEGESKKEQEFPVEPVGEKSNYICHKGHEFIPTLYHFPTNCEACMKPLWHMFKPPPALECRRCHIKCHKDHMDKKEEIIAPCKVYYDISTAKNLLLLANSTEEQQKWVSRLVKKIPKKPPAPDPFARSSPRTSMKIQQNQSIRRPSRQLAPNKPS
Experiment: ROCK assay (peptide substrate phosphorylation, LABCHIP 3000 Reader)
Format: biochemical
Method: Compounds were dissolved in DMSO so that the final concentration of DMSO was <2%, and the reaction was initiated with Rho kinase variants. After incubation, the reaction was terminated by the addition of EDTA and the phosphorylated and non-phosphorylated peptides separated using a LABCHIP® 3000 Reader (Caliper Life Sciences). […] Compounds were tested in dose-response format, and the inhibition of kinase activity was calculated at each concentration of compound.
Endpoint: IC50 (µM)
Write it as a number; the unit µM goes unstated.

>  <Smiles data>
COc1cc(C(=O)N2CCC[C@@H]2C(=O)N2CCc3ccccc32)ccc1-c1cn[nH]c1

>  <Experimental result>
0.504

$$$$

Let's switch to this compound now.
Query: Looking for the measured IC50 of N#Cc1cc(C(=O)N2C[C@H](O)C[C@@H]2c2ccccc2F)ccc1-c1cn[nH]c1 , can you help?
Response: 0.667

###

Tgt: ROCK2 (Homo sapiens (Human), UniProt O75116)
Experiment: ROCK assay (peptide substrate phosphorylation, LABCHIP 3000 Reader)
Type: biochemical
Recorded conditions: 5 μM ATP, 1.5 μM peptide substrate
pIC50: −log10 of the molar value.
Endpoint: pIC50

Below, 3 molecules whose answers are already recorded.
>  <Molecule>
COc1cc(C(=O)N2CCCC2c2ccc(C)cc2)ccc1-c1cn[nH]c1 (stereo not shown)

>  <Endpoint>
pIC50

>  <Experimental result>
6.67

$$$$
>  <Molecule>
COc1cc(-c2cn[nH]c2)ccc1C(=O)N1C[C@H](O)C[C@@H]1c1ccccc1F

>  <Endpoint>
pIC50

>  <Experimental result>
6.14

$$$$
>  <Molecule>
COc1cccc(C2CCCN2C(=O)c2ccc(-c3cn[nH]c3)c(OC)c2)c1 (stereo not shown) [Example 12]

>  <Endpoint>
pIC50

>  <Experimental result>
7.90

$$$$

I: COc1cc(C(=O)N2C[C@H](O)C[C@@H]2c2ccccc2F)ccc1-c1cn[nH]c1
II: COc1cc(C(=O)N2CCCC2c2ccccc2)ccc1-c1cn[nH]c1 (stereo not shown)
III: COc1cc(C(=O)N2CCCC2c2cccc(S(N)(=O)=O)c2)ccc1-c1cn[nH]c1 (stereo not shown) [Example 18]
IV: COc1cc(C(=O)N2C[C@@H](N)C[C@@H]2c2ccccc2F)ccc1-c1cn[nH]c1
V: COc1cccc(C2CCCN2C(=O)c2ccc(-c3ccncc3F)c(OC)c2)c1 (stereo not shown)
Query: Order these by pIC50, descending, and give the full ranking. Order the labels as requested and list them.
Response: IV, III, I, V, II
(IV: 9.06, III: 8.55, I: 8.10, V: 7.62, II: 7.30)

1: COc1cc(C(=O)N2CCCC2c2ccc(F)cc2)ccc1-c1cn[nH]c1 (stereo not shown)
2: COc1cc(C(=O)N2CC(F)(F)C[C@@H]2c2cccc(C(=O)NC3CC3)c2)ccc1-c1cn[nH]c1
Query: Lower value for measured pIC50? Options: 1 , 2 Your choice should be expressed through its label.
Response: 1
(1: 7.38, 2: 8.27)
